// data source = patent US20130012432A1

# assay_procedure: physchem
# measurement_conditions: pH 7.5, Solubility Conc.
Positions of bridges follow the written chain, without caps; N, C: chain ends. Non-standard residues stand in square brackets, D forms with d. Residues, ends and D or L forms follow the SMILES beside them. *: point of attachment. Lys(CH2CO2H)2 = N[C@@H](CCCCN(CC(=O)O)CC(=O)O)C(=O)O; X1 = O=C(O)CCCCCCCCCCCCCCCCC(=O)NCCOCCOCCN*; Orn = NCCC[C@H](N)C(=O)O
metric: solubility (µM)
Enter your answer as a number in µM; do not include the unit.

The recorded solubility for CC(=O)N[C@H]1CCCNC(=O)C[C@@H](C(=O)N2CCC[C@H]2C(=O)N2CCC[C@H]2C(=O)N[C@@H](CCCNC(=N)N)C(=O)N[C@@H](CCC(=O)O)C(=O)N[C@@H](CCCCN(CC(=O)O)CC(=O)O)C(=O)N[C@@H](CO)C(=O)N[C@@H](CO)C(=O)NCCOCCOCCNC(=O)CCCCCCCCCCCCCCCCC(=O)O)NC(=O)[C@H](Cc2c[nH]c3ccccc23)NC(=O)[C@H](CCCNC(=N)N)NC(=O)[C@@H](Cc2ccccc2)NC(=O)[C@H](Cc2c[nH]cn2)NC1=O [Example 50] (Ac-[Orn]H[dF]RWDPPRE[Lys(CH2CO2H)2]SS-X1; lactam 1-6) is 176
